molecular target: full length recombinant Pim-1 (Homo sapiens (Human)); assay: Pim enzyme assay (HTRF, phosphorylation of biotinylated-BAD (S112) peptide), Pim-1; format: biochemical; settings: Pim-1 enzyme assay; read-out: Pim_1_IC50
pIC50: −log10 of the molar value.
Label true (1) when pIC50 >= 8; otherwise false (0).

| COMPOUND | LABEL_VALUE |
| --- | --- |
| O=c1[nH]nc(-c2ccc3[nH]cc(-c4cncc(C5CC5)n4)c3c2)o1 [Example 38, 2,2,2-trifluoroacetate] | false (0) |
| CC(C)Oc1cccc(-c2c[nH]c3ccc(-c4nc(N)ns4)cc23)n1 [Example 63] | false (0) |
| CC(C)Nc1nnc(-c2ccc3[nH]cc(-c4nccc(C5CC5)n4)c3c2)o1 [Example 264] | true (1) |
| Nc1nnc(-c2ccc3[nH]cc(-c4cncc(-c5ccc(F)cc5)n4)c3c2)o1 [Example 7] | false (0) |
| Nc1nnc(-c2ccc3[nH]cc(-c4cncc(C5CC5)n4)c3c2)o1 [Example 98] | true (1) |
| CNc1nnc(-c2ccc3[nH]cc(-c4csc(-c5ccoc5)n4)c3c2)s1 [Example 240] | false (0) |
| CNc1nnc(-c2ccc3[nH]cc(-c4cccc(N5CCCC5=O)n4)c3c2)s1 [Example 229] | false (0) |

----------
IC50 values by entry
molecular target: full length recombinant Pim-1 (Homo sapiens (Human), UniProt P11309); experiment: Pim enzyme assay (HTRF, phosphorylation of biotinylated-BAD (S112) peptide), Pim-1; assay type: biochemical; conditions: Pim-1 enzyme assay; read-out: Pim_1_IC50
Sequence (P11309 whole entry): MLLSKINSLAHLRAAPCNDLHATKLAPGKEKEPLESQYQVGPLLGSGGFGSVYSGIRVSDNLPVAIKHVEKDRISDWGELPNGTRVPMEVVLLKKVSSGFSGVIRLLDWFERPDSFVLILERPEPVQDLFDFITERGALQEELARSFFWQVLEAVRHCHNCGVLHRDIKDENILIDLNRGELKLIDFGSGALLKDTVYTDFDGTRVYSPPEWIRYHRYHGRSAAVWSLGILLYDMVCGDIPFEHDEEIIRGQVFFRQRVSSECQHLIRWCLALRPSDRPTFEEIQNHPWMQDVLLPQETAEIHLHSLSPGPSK

| MOLECULE | ASSAYED_TARGET | IC50 |
| --- | --- | --- |
| Cc1nnc(-c2ccc3[nH]cc(-c4cccc(OC(C)C)n4)c3c2)o1 [Example 42] | full length recombinant Pim-1 (Homo sapiens (Human), UniProt P11309) | 21.2 nM |
| Nc1nnc(-c2ccc3[nH]cc(-c4ccccc4F)c3c2)s1 [Example 136] | full length recombinant Pim-1 (Homo sapiens (Human), UniProt P11309) | 67.3 nM |
| Fc1ccccc1-c1c[nH]c2ccc(-c3nnc(NCc4ccccc4)s3)cc12 [Example 149] | full length recombinant Pim-1 (Homo sapiens (Human), UniProt P11309) | 1050 nM |
| COc1nc(-c2c[nH]c3ccc(-c4nnc(NC(C)C)o4)cc23)nc(C)c1F [Example 260] | full length recombinant Pim-1 (Homo sapiens (Human), UniProt P11309) | 159 nM |
| Nc1nnc(-c2ccc3[nH]cc(-c4nccc(N5CCC[C@@H](O)C5)n4)c3c2)o1 (stereo in doubt) [Example 104] | full length recombinant Pim-1 (Homo sapiens (Human), UniProt P11309) | 11.4 nM |
| Cc1cc(N)nc(-c2c[nH]c3ccc(-c4nnc(NC(C)(C)C)o4)cc23)n1 [Example 272] | full length recombinant Pim-1 (Homo sapiens (Human), UniProt P11309) | 105 nM |
| Nc1cc(-c2c[nH]c3ccc(-c4nnc(N)s4)cc23)ccn1 [Example 186] | full length recombinant Pim-1 (Homo sapiens (Human), UniProt P11309) | 260 nM |
| Nc1nnc(-c2ccc3[nH]cc(-c4cccc(N5CCOCC5)n4)c3c2)o1 [Example 6] | full length recombinant Pim-1 (Homo sapiens (Human), UniProt P11309) | 5.91 nM |
| CNc1nnc(-c2ccc3[nH]cc(-c4ccnc(N5CCOCC5)n4)c3c2)s1 [Example 129] | full length recombinant Pim-1 (Homo sapiens (Human), UniProt P11309) | 31.3 nM |
